# Tested on: human FPR1 (Homo sapiens (Human), UniProt P21462)
# Sequence (P21462 whole entry): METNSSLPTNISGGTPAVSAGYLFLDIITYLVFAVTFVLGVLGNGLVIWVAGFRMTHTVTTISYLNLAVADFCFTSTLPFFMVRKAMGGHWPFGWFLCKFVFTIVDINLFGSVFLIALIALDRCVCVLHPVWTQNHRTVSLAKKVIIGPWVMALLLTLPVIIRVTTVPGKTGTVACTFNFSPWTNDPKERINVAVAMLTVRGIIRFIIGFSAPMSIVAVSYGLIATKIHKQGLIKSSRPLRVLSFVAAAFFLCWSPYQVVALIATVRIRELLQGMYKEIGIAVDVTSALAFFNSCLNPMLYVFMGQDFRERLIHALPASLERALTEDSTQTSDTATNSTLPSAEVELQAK
# Protocol text: FPR1 cyclic adenosine monophosphate (cAMP) assay
# Experimental conditions: CHO cells overexpressing human FPR1; forskolin 10 µM; inhibition of cAMP production; read-out: hFPR1 cAMP EC50
Measured parameter: EC50 (nM)

{"columns": ["Molecule", "Readout number"],
 "data": [
  ["COc1cc(C2CCN(CCO)CC2)nc(N2C(=O)[C@@H](NC(=O)c3ccc(OC(F)F)cc3)[C@H](c3c(F)cc(OC)cc3F)[C@@H]2C)c1", 3300],
  ["COc1cc(F)c([C@@H]2CN(c3ncccc3P(C)(C)=O)C(=O)[C@H]2NC(=O)c2ccc(OC(F)(F)F)cc2)c(F)c1", 3200],
  ["COCCn1cccc(N2C(=O)[C@@H](NC(=O)c3ccc(OC(F)F)cc3)[C@H](c3c(F)cc(OC)cc3F)[C@@H]2C)c1=O", 65],
  ["COc1ccc([C@@H]2CN(c3c(C)ccn(CC4CCOCC4)c3=O)C(=O)[C@H]2NC(=O)c2ccc(OC(F)F)cc2)c(F)c1", 2.5],
  ["COc1ccc([C@@H]2CN(c3c(C)ccn(CC4CC4)c3=O)C(=O)[C@H]2NC(=O)c2ccc(OC(F)F)cc2)cc1 [Example 610]", 0.3],
  ["COc1cc(F)c([C@@H]2CN(c3cc(C)cn(C)c3=O)C(=O)[C@H]2NC(=O)c2ccc(OC(F)F)cc2)c(F)c1", 950]
]}

----------
# Tested on: human FPR2 (Homo sapiens (Human))
# Sequence (P25090 whole entry): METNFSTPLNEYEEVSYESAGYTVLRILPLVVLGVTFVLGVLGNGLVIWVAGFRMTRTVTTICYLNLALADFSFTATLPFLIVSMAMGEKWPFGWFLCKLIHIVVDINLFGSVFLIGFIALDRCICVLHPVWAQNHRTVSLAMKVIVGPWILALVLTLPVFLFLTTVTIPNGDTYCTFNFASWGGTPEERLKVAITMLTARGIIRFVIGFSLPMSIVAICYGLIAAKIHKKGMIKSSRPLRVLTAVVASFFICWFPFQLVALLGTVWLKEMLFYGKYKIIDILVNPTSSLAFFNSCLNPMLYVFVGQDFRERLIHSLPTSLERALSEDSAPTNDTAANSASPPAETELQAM
# Protocol text: FPR2 cyclic adenosine monophosphate (cAMP) assay
# Experimental conditions: CHO cells overexpressing human FPR2; forskolin 5 µM; inhibition of cAMP production; read-out: hFPR2 cAMP2 EC50

{"columns": ["Compound", "EC50 / nM"],
 "data": [
  ["COCCn1cccc(N2C(=O)[C@@H](NC(=O)c3ccc(OC(F)(F)F)cc3)[C@H](c3c(F)cc(OC)cc3F)[C@@H]2C)c1=O", 2.7],
  ["COCC(C(=O)N1CC2(COC2)C1)n1cccc(N2C[C@@H](c3c(F)cc(OC)cc3F)[C@H](NC(=O)c3ccc(OC(F)(F)F)cc3)C2=O)c1=O (stereo partly shown)", 2.5],
  ["COCC(CO)n1cccc(N2C[C@@H](c3ccc(OC)cc3F)[C@H](NC(=O)c3ccc(OC(F)(F)F)cc3)C2=O)c1=O (stereo partly shown) [Example 437]", 1],
  ["COc1cc(N2C[C@@H]3C[C@H]2CN3C)nc(N2C(=O)[C@@H](NC(=O)c3ccc(Cl)cc3)[C@H](c3c(F)cc(OC)cc3F)[C@@H]2C)c1", 1.9],
  ["COc1cc(F)c([C@@H]2CN(c3cccn(CC(C)OC)c3=O)C(=O)[C@H]2NC(=O)c2ccc(OC(F)F)cc2)c(F)c1 (stereo partly shown)", 7],
  ["COc1cc(F)c([C@@H]2CN(c3cccn(CCN4CC5(COC5)C4)c3=O)C(=O)[C@H]2NC(=O)c2ccc(OC(F)(F)F)cc2)c(F)c1", 5.5],
  ["COc1cc(F)c([C@@H]2CN(c3cccc(N4C[C@@H]5C[C@H]4CN5C)n3)C(=O)[C@H]2NC(=O)c2ccc(OC(F)F)cc2)c(F)c1", 1.6],
  ["COc1cc(F)c([C@@H]2CN(c3cccn4cc(C(F)(F)F)nc34)C(=O)[C@H]2NC(=O)c2ccc(Cl)cc2)c(F)c1", 1.2],
  ["CCn1ccc(N2C[C@@H](c3c(F)cc(OC)cc3F)[C@H](NC(=O)c3ccc(OC(F)F)cc3)C2=O)n1", 0.7],
  ["COCC(CO)n1nccc(N2C[C@@H](c3c(F)cc(OC)cc3F)[C@H](NC(=O)c3ccc(OC(F)F)cc3)C2=O)c1=O (stereo partly shown)", 1.7],
  ["COCCN1CCCC(N2C[C@@H](c3c(F)cc(OC)cc3F)[C@H](NC(=O)c3ccc(OC(F)(F)F)cc3)C2=O)C1=O (stereo partly shown)", 3],
  ["COc1cc(C2CCN(C)CC2)nc(N2C(=O)[C@@H](NC(=O)c3ccc(OC(F)(F)F)cc3)[C@H](c3c(F)cc(OC)cc3F)[C@@H]2C)c1", 8.2],
  ["COc1cc(F)c([C@H]2[C@H](NC(=O)c3ccc(OC(F)F)cc3)C(=O)N(c3ncccc3OC)[C@H]2C)c(F)c1", 2],
  ["COc1cc(F)c([C@@H]2CN(c3cccn(CCN(C)C)c3=O)C(=O)[C@H]2NC(=O)c2ccc(OC(F)(F)F)cc2)c(F)c1", 2.3],
  ["COCCn1cccc(N2C[C@@H](c3c(F)cc(OC)cc3F)[C@H](NC(=O)c3ccc(C(F)(F)F)cc3)C2=O)c1=O", 8],
  ["COc1ccc([C@@H]2CN(c3c(C)ccn(CCC(F)(F)F)c3=O)C(=O)[C@H]2NC(=O)c2ccc(Cl)cc2)c(F)c1", 3.7],
  ["COc1ccc([C@@H]2CN(c3c(C)ccn(CCC(F)(F)F)c3=O)C(=O)[C@H]2NC(=O)c2ccc(Cl)cc2)cc1 [Example 594]", 2.4],
  ["COc1cc(F)c([C@@H]2CN(c3ccc(C)n(C)c3=O)C(=O)[C@H]2NC(=O)c2ccc(Cl)cc2)c(F)c1", 3.5],
  ["CCn1cccc(N2C(=O)[C@@H](NC(=O)c3ccc(OC(F)F)cc3)[C@H](c3c(F)cc(OC)cc3F)[C@@H]2C)c1=O", 2.1],
  ["O=C(N[C@@H]1C(=O)N(c2cccn(CC(F)F)c2=O)C[C@H]1c1ccc(Cl)cc1)c1ccc(OC(F)(F)F)cc1", 1.9],
  ["COc1cc(F)c([C@@H]2CN(c3cncn(CC(O)C(F)(F)F)c3=O)C(=O)[C@H]2NC(=O)c2ccc(Cl)cc2)c(F)c1 (stereo partly shown)", 4.3],
  ["COc1ccc([C@@H]2CN(c3cccn(CC(O)C(F)(F)F)c3=O)C(=O)[C@H]2NC(=O)c2ccc(OC(F)(F)F)cc2)cc1 (stereo partly shown) [Example 354]", 3.2],
  ["COc1ccnc(N2C[C@@H](c3c(F)cc(OC)cc3F)[C@H](NC(=O)c3ccc(OC(F)F)cc3)C2=O)c1", 18],
  ["COc1cc(F)c([C@@H]2CN(C3CCC3)C(=O)[C@H]2NC(=O)c2ccc(OC(F)(F)F)cc2)c(F)c1", 15],
  ["COc1cc(F)c([C@@H]2CN(c3cccn(CC4CC(F)(F)C4)c3=O)C(=O)[C@H]2NC(=O)c2ccc(OC(F)(F)F)cc2)c(F)c1", 7.7]
]}
